Assay Target: SARS-CoV-2 full length spike protein, V483A mutant (SARS-CoV-2, UniProt P0DTC2 14-1273)
I'd appreciate it if you could supply median fold over isotype values for the items below.
Express it in fold over isotype; write the number only.

Query: Entry antibody 545 (antibody, V domains shown) VH: QVQLVQSGSELKKPGASVKVSCKASGYTFTSYAMNWVRQAPGQGLEWMGWINTNTGNPTYAQGFTGRFVFSLDTSVSTAYLQISVLKAEDTGVYYCARDHELPNSSSWFGHFEYWGQGTLVTVSS VL: SYELTQPPSVSVSPGQTARITCSGDALPKQYAYWYQQKAGQAPVLVIYKDSERRSGIPERFSGSSSGTTVTLTISGVQAEDEADYYCQSADSSGTSVVFGGGTKLTVL : reported median fold over isotype = ?
Result: 14.3

Query: Endpoint output: median fold over isotype of antibody 516 (antibody, V domains shown) VH: QVELQQWGAGLLKPSETLSLTCAVYGGSFSGYYWSWIRQPPGKGLEWIGEINHSGSTNYNPSLKSRVTISIDTSKNQFSLKLSSVTAADTAVYYCARGTTVTTFFAPHWYFDLWGRGTLVTVSS VL: QSALTQPASVSGSPGQSITISCTGTSSDVGGYNYVSWYQQHPGKAPKLMIYDVSNRPSGVSNRFSGSKSGNTASLTISGLQAEDEADYYCSSYTSSSTPYVFGTGTKVTVL . Value?
Result: 2.61

Query: Field request: median fold over isotype | item: antibody 533 (antibody, V domains shown) VH: GVQLVESGGVVVQPGGSLRLSCAASGFSFDDYTMHWVRQAPGKGLEWVSLVSWDGGTTYYTDSVKGRFTISRDNSKNSLYLQMNSLRTEDTALYFCAKDSGRIVPAATFDYWGQGTLVTVSS VL: DIQMTQSSSSLSASVGDRVTITCRASQDISNYLAWFQQKPGKAPKSLIYAASSLQSGVPSKFSGSGSGTDFTLTISSLQPEDFATYYCQQYYTYPLTFGGGTKVEIK
Result: 4.86
